system.name: DR4 (DRB1*0401) molecules (Homo sapiens, UniProt P01903+P01911, A100K/A169T/F76Y/I96L/K127E/L162R/M171V/N62H/P40V/Q125Y/R42H/S133A/S149N/S66Y/V115G/V209L/W38E)
Construct: molecules were purified from the homozygous EBV-transformed human B lymphoblastoid cell lines Huly138IC2 and BM92 using the mAb; endogenous in cells
assay.name: Peptide HLA-DR binding assay (semi-quantitative competition binding)
conditions.used: Table IIIA; competition with biotinylated marker peptide HA 309 Y→F, pH5.0, 44 hr RT
pIC50: −log10 of the molar value. Ends that are not written are not given here.
Give measured pIC50 for each item. Keep answers brief.

Lookup: Write down pIC50 measured for item WALDLDDFQGSFCGQD [compound 56, WALDLDDFQGSFCGQD]
Found: > 6.00

Lookup: Write down pIC50 measured for item MLRLGAPASKLVMGIP [compound 38, MLRLGAPASKLVMGIP]
Found: 4.00 to 5.00

Lookup: Write down pIC50 measured for item PPFLRTHGFDGLDLAW [compound 18, PPFLRTHGFDGLDLAW]
Found: 4.00 to 5.00
